protocol.description: Cytotoxic activity against human tumor C8305 cell line
Assay type: functional, cell-based
experimental.setup: c8305
measure: IC50

Briefly, IC50 measured for Nc1cccc(-c2cc(O)c3ccc4[nH]ccc4c3n2)c1 : > 100 µM

----------
System: HT-29
protocol.description: Cytotoxic activity against human tumor HT-29 cell line
Assay type: functional, cell-based
Counter-ions that a name gives are not always drawn.
pIC50 for assorted compounds
Field pIC50 (float): negative decimal logarithm of the concentration in molar.

Solved cases below.
CC[C@]1(O)C[C@H]2CN(CCc3c([nH]c4ccccc34)[C@@](C(=O)OC)(c3cc4c(cc3OC)N(C=O)[C@H]3[C@@](O)(C(=O)OC)[C@H](OC(C)=O)[C@]5(CC)C=CCN6CC[C@]43[C@@H]65)C2)C1 [VINCRISTINE SULFATE]	7.00
COc1cccc(-c2cc(O)c3ccc4[nH]ccc4c3n2)c1	4.30

Briefly, pIC50 measured for Cn1ccc2c3nc(-c4ccccc4)cc(O)c3ccc21 : 4.30

Briefly, pIC50 measured for Oc1cc(-c2ccccc2)nc2c1ccc1[nH]ccc12 : 4.22

----------
protocol.description: Cytotoxic activity against human tumor PLC/PRF/5 cell line
Type: functional
experimental.setup: Homo sapiens, PLC-PRF-5
Structures can show the parent of a compound that is named as a salt.
pIC50 for assorted compounds
Field pIC50 (float): negative decimal logarithm of the concentration in molar.

CC[C@]1(O)C[C@H]2CN(CCc3c([nH]c4ccccc34)[C@@](C(=O)OC)(c3cc4c(cc3OC)N(C=O)[C@H]3[C@@](O)(C(=O)OC)[C@H](OC(C)=O)[C@]5(CC)C=CCN6CC[C@]43[C@@H]65)C2)C1 [VINCRISTINE SULFATE]	7.00

Briefly, pIC50 measured for Nc1cccc(-c2cc(O)c3ccc4[nH]ccc4c3n2)c1 : 4.30

Briefly, pIC50 measured for COc1cccc(-c2cc(O)c3ccc4[nH]ccc4c3n2)c1 : 5.15

Briefly, pIC50 measured for Oc1cc(-c2cccs2)nc2c1ccc1[nH]ccc12 : 4.10

Briefly, pIC50 measured for Cn1ccc2c3nc(-c4ccccc4)cc(O)c3ccc21 : 5.15

Briefly, pIC50 measured for Oc1cc(-c2ccccc2)nc2c1ccc1[nH]ccc12 : 5.10

----------
protocol.description: Cytotoxic activity against human tumor PLC/PRF/5 cell line
Format: functional
pIC50: −log10 of the molar value.
measure: pIC50

Briefly, pIC50 measured for Nc1cccc(-c2cc(O)c3ccc4[nH]ccc4c3n2)c1 : < 4.00

----------
System: IGROV-1
protocol.description: Cytotoxic activity against human tumor Igrov-1 cell line
Assay type: functional, cell-based
experimental.setup: Homo sapiens, IGROV-1
Counter-ions that a name gives are not always drawn.
IC50 for assorted molecules

Briefly, IC50 measured for O=[N+]([O-])c1ccc(-c2cc(O)c3ccc4[nH]ccc4c3n2)cc1 : 60000 nM

Briefly, IC50 measured for Cn1ccc2c3nc(-c4ccccc4)cc(O)c3ccc21 : 3000 nM

Briefly, IC50 measured for CC[C@]1(O)C[C@H]2CN(CCc3c([nH]c4ccccc34)[C@@](C(=O)OC)(c3cc4c(cc3OC)N(C=O)[C@H]3[C@@](O)(C(=O)OC)[C@H](OC(C)=O)[C@]5(CC)C=CCN6CC[C@]43[C@@H]65)C2)C1 [VINCRISTINE SULFATE] : 10 nM
